The origin of these recorded values is paper PMC6107785.

assay: in vivo; conditions: male, Sprague-Dawley, rat, po, 6 mg/kg, CMax
ASSAY METRIC: Cmax (ng/mL)

molecule="CC(C)Cc1ccc(C(C)C(=O)O)cc1 (stereo not shown)" result_number=5700

###

experiment: Oral pharmacokinetics in male Sprague-Dawley rats; conditions: male, Sprague-Dawley, rat, plasma, po, 7.6 mg/kg, CMax, 3 at 7.6 mg kg^−1 oral, rat plasma, assayed compound intact 3
ASSAY METRIC: Cmax (ng/mL)

item_smiles=CC(C)c1cccc(C(C)C)c1OC(=O)C[C@H](NC(=S)[C@H](C)N)C(=O)O assay_metric=Cmax result_number=16700

###

experiment: Oral pharmacokinetics in male Sprague-Dawley rats; settings: male, Sprague-Dawley, rat, plasma, po, 10 mg/kg, tmax, 1 at 10 mg kg^−1 oral, rat plasma, assayed compound intact 1
ASSAY METRIC: Tmax (h)

item_smiles=CC(C)Cc1ccc([C@@H](C)C(=O)OC[C@H](NC(=S)[C@H](C)N)C(=O)O)cc1 result_number=1

###

test: Oral pharmacokinetics in male Sprague-Dawley rats; conditions: male, Sprague-Dawley, rat, plasma, po, 10 mg/kg, CMax, 1 at 10 mg kg^−1 oral, rat plasma, assayed compound intact 1
ASSAY METRIC: Cmax (ng/mL)

molecule="CC(C)Cc1ccc([C@@H](C)C(=O)OC[C@H](NC(=S)[C@H](C)N)C(=O)O)cc1 [Compound 1]" result_number=200

###

Target: rabbit PepT1 (Oryctolagus cuniculus, UniProt P36836)
Sequence (P36836 1-707): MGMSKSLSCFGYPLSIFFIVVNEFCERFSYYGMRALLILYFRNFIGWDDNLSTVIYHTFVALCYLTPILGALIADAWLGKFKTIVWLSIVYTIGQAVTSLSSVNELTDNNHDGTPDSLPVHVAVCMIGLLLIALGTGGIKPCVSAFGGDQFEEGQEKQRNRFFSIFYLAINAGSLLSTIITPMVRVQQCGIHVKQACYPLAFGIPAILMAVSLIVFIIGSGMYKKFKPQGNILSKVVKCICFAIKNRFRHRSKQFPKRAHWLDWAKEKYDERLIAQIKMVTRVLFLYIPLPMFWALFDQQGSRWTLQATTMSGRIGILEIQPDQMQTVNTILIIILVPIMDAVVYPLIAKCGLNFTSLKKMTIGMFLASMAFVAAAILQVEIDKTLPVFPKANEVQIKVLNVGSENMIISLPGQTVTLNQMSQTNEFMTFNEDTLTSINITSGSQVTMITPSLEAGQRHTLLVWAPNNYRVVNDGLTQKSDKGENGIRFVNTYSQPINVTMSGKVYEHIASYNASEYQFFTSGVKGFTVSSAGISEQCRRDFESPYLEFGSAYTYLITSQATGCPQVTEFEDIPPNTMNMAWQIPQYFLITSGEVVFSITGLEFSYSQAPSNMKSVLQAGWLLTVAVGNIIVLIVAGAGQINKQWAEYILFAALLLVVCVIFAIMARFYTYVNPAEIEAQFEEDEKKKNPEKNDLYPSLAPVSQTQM
Test: Inhibition of radiolabelled D-Phe-L-Gln uptake in Xenopus laevis oocytes expressing rabbit PepT1 (binding affinity)
Settings: oocytes expressing rabbit PepT1, pH 5.5 assay buffer
Overview of recorded log10 Ki for various compounds
ASSAY METRIC: log10 Ki (log10 of the value in µM)

compound=CC(=O)N[C@H]1[C@H]([C@H](O)[C@H](O)COC(=O)C[C@H](NC(=S)[C@H](C)N)C(=O)O)OC(C(=O)O)=C[C@@H]1NC(=N)N target_or_test_system="rabbit PepT1 (Oryctolagus cuniculus, UniProt P36836)" assay_metric="log10 Ki" result_number=2.11
compound=CC(C)c1cccc(C(C)C)c1OC(=O)C[C@H](NC(=S)[C@H](C)N)C(=O)O target_or_test_system="rabbit PepT1 (Oryctolagus cuniculus, UniProt P36836)" assay_metric="log10 Ki" result_number=2.96
compound="C[C@H](NC(=O)[C@@H](N)Cc1ccccc1)C(N)=S [FSA, PheΨ[CS-NH]-Ala, reference compound]" target_or_test_system="rabbit PepT1 (Oryctolagus cuniculus, UniProt P36836)" assay_metric="log10 Ki" result_number=2.51
compound=COc1c(C)c2c(c(O)c1C/C=C(\C)CCC(=O)OC[C@H](NC(=S)[C@H](C)N)C(=O)O)C(=O)OC2 target_or_test_system="rabbit PepT1 (Oryctolagus cuniculus, UniProt P36836)" assay_metric="log10 Ki" result_number=2.32
compound=CC(C)Cc1ccc([C@@H](C)C(=O)OC[C@H](NC(=S)[C@H](C)N)C(=O)O)cc1 target_or_test_system="rabbit PepT1 (Oryctolagus cuniculus, UniProt P36836)" assay_metric="log10 Ki" result_number=2.41
compound=CC(C)NC[C@@H](COc1ccc(CC(N)=O)cc1)OC(=O)C[C@H](NC(=S)[C@H](C)N)C(=O)O target_or_test_system="rabbit PepT1 (Oryctolagus cuniculus, UniProt P36836)" assay_metric="log10 Ki" result_number=2.64
compound=C[C@H](N)C(=S)N[C@@H](COC(=O)CC1(CN)CCCCC1)C(=O)O target_or_test_system="rabbit PepT1 (Oryctolagus cuniculus, UniProt P36836)" assay_metric="log10 Ki" result_number=3.00
compound=C[C@H](N)C(=S)N[C@@H](COC(=O)C[C@@H](CN)c1ccc(Cl)cc1)C(=O)O target_or_test_system="rabbit PepT1 (Oryctolagus cuniculus, UniProt P36836)" assay_metric="log10 Ki" result_number=3.27
